tested on: SF-268 CNS; assay: NCI tumour cell line growth inhibition, 48 h
Classification field: criterion met = TGI at or over 80 µM; criterion not met = TGI under 80 µM.

MOLECULE	LABEL VALUE
COc1ccc2c3c1OC1C(=O)C=CC4(CC2)N(C)CCC314 (configuration not stated)	criterion met

Data request: Hi, just wondering whether `Cc1ccc(S(=O)(=O)c2c(COC(=O)c3cccc(C)c3)c(-c3ccccc3)nn2C)cc1` shows TGI of 80 µM or higher.
Data returned: criterion met

Data request: Further, for `CC(C)=NN/C(=N\S(=O)(=O)c1ccc(Oc2cccc(Cl)c2C#N)cc1)Nc1ccc(Cl)cc1` ?
Data returned: criterion met

Data request: Now the molecule `O=C(Nc1cccc(-n2cc(-c3ccncc3)c(-c3ccc(Cl)c(O)c3)n2)c1)Nc1cc(C(F)(F)F)cc(C(F)(F)F)c1`
Data returned: criterion not met

Data request: Moving on to CC(CN(C)C)/C(=N\Nc1ccccc1)c1ccccc1 (configuration not stated)
Data returned: criterion not met

Data request: Next up: `CCOC(=O)/C(C1=NCCN1)=C(\O)c1ccccc1`
Data returned: criterion met

Data request: Now this one: `O=S(=O)(/C=C/c1ccc(F)cc1)Cc1ccc(CS(=O)(=O)/C=C/c2ccc(F)cc2)cc1`
Data returned: criterion met

====

tested on: SF-268 CNS; test: NCI tumour cell line growth inhibition, 48 h
Label rule, in plain words: TGI of 80 µM and up is y, under 80 µM is n.

Use the examples below as a reference point.
COMPOUND	LABEL VALUE
COc1ccc(C2=Nc3cc(C)c(C)cc3NC(c3ccccc3)C2)cc1 (stereo not given)	y
Cc1cc(NC(=O)NC(=O)c2ccccc2NC(=O)C(C)N)ccc1Oc1ncc(Br)cn1 (stereo not given)	n
CC1=C(c2cccc(O)c2)[C@H](c2ccc(OCCN3CC(CF)C3)cc2)Oc2ccc(O)cc21	n
O=C1C[C@@H](C(=O)OCc2ccccc2)NC(=O)C[C@@H](C(=O)OCc2ccccc2)NC(=O)C[C@@H](C(=O)OCc2ccccc2)N1	y
NCCCN(CCCN(C(=O)Nc1ccccc1)c1ccccc1)C(=O)Nc1ccccc1	y

Data request: Is TGI at least 80 µM? Consider `CCOC(=O)c1nc2ccc(C(F)(F)F)cc2nc1Oc1cc(OC)c(OC)c(OC)c1`
Data returned: y

Data request: Query `CC(C)CNc1nc2ncnc(N)c2[nH]1` next
Data returned: y

Data request: Repeat with CO/N=C1\CC(NC(=O)CNC(=O)OC(C)(C)C)c2ccsc21 (stereo not given)
Data returned: y
